target: MAPK14 (human); assay: Inhibition of LPS Stimulated TNF Production by U937 Cells; settings: concentration not given here

CHEMICAL_SMILES	inhibition
C[C@@H](NS(=O)(=O)c1ccccc1S(C)(=O)=O)c1[nH]nc(-c2ccc(F)cc2)c1-c1ccncc1	80%
Cc1c(-c2ccncc2)c(-c2ccc(F)cc2)nn1CC(=O)NC1CCCC1	36%
NC(=O)N[C@@H](Cc1ccccc1)c1[nH]nc(-c2ccc(F)cc2)c1-c1ccncc1	17%
CCOC(=O)NCCc1[nH]nc(-c2ccc(F)cc2)c1-c1ccncc1	55%
CCOC(=O)CNC(=O)NCc1[nH]nc(-c2ccc(F)cc2)c1-c1ccncc1	27%
CCOC(=O)[C@H](Cc1ccccc1)NC(=O)Cn1nc(-c2ccc(F)cc2)c(-c2ccncc2)c1C	1%
C[C@H](NS(=O)(=O)c1ccccc1Cl)c1[nH]nc(-c2ccc(F)cc2)c1-c1ccncc1	94%
COc1cc(C(=O)NCc2[nH]nc(-c3ccc(F)cc3)c2-c2ccncc2)cc(OC)c1OC	21%
COc1ccc(NC(=O)N[C@@H](C)c2[nH]nc(-c3ccc(F)cc3)c2-c2ccncc2)c(OC)c1	21%
